Structures can show the parent of a compound that is named as a salt.
property_name: melting point

Illustrative cases are given below, each with its answer.
{"molecule": "Cc1cc(N2CCc3ccccc3C2)cc(N)n1 (as salt: fumarate) [Example 32]", "melting point": "> 270 °C"}
{"molecule": "Nc1cc(N2CCc3ccccc3C2)ccn1 [Example 30]", "melting point": "160 to 161 °C"}
{"molecule": "Cc1cc(N2CCc3ccccc3C2)cc(NCCO)n1 (as salt: fumarate) [Example 35]", "melting point": "160 °C"}

Reported melting point, molecule Clc1ccc2c(c1)CCN(c1ccncc1)C2 (as salt: hydrochloride) [Example 27] : ____
> 250 °C

----------
Counter-ions that a name gives are not always drawn.
property_name: melting point

Illustrative cases are given below, each with its answer.
{"compound": "CCNc1ccnc(N2CCc3ccccc3C2)c1 (as salt: fumarate) [Example 16]", "melting point": "73 to 74 °C"}
{"compound": "Cc1cc(N2CCc3ccccc3C2)cc(NC(=O)CO)n1 [Example 34]", "melting point": "160 to 162 °C"}

Would you mind giving melting point for every compound in the list below?
1. Clc1ccc2c(c1)CN(c1ccncc1)CC2 (as salt: hydrochloride) [Example 28]
2. CN1COCc2c1ccnc2N1CCc2ccccc2C1 (as salt: hydrochloride) [Example 14]
3. CCOC(=O)C(=O)Nc1cc(N2CCc3ccccc3C2)cc(C)n1 (as salt: hydrochloride) [Example 33]
4. Cc1cc(N2CCc3ccccc3C2)ccn1 (as salt: fumarate) [Example 31]
5. CC1CN(c2ccncc2)Cc2ccccc21 (racemic) (as salt: hydrochloride) [Example 29]
6. Nc1cc(N2CCc3ccccc3C2)nc2c1CCCC2 (as salt: hydrochloride) [Example 7]

1. 100 to 101 °C
2. 220 to 221 °C
3. > 160 °C (dec.)
4. 155 to 156 °C
5. 224 to 227 °C
6. 109 to 110 °C

----------
Structures can show the parent of a compound that is named as a salt.
Please respond with reported melting point for every item in the list.

{"compound": "Clc1cccc2c1CCN(c1ccncc1)C2 (as salt: hydrochloride)", "meas_value": "258 to 259 °C"}

Would you mind giving melting point for every compound in the list below?
1. NCc1cccc(N2CCc3ccccc3C2)n1 (as salt: hydrochloride)
2. CC1CN(c2cc(N)ccn2)Cc2ccccc21 (racemic) (as salt: fumarate)
3. Clc1cccc2c1CN(c1ccncc1)CC2 (as salt: fumarate)

1. 192 to 195 °C
2. 178 to 179 °C
3. 178 to 179 °C

----------
- target_desc: NMDA-receptor subtype 2B (Rattus norvegicus, UniProt P35439+Q00960)
- Construct: Membranes were prepared by homogenization of the whole brain minus cerebellum and medulla oblongata
- Sequence (Q00960 27-1482, other chains not shown): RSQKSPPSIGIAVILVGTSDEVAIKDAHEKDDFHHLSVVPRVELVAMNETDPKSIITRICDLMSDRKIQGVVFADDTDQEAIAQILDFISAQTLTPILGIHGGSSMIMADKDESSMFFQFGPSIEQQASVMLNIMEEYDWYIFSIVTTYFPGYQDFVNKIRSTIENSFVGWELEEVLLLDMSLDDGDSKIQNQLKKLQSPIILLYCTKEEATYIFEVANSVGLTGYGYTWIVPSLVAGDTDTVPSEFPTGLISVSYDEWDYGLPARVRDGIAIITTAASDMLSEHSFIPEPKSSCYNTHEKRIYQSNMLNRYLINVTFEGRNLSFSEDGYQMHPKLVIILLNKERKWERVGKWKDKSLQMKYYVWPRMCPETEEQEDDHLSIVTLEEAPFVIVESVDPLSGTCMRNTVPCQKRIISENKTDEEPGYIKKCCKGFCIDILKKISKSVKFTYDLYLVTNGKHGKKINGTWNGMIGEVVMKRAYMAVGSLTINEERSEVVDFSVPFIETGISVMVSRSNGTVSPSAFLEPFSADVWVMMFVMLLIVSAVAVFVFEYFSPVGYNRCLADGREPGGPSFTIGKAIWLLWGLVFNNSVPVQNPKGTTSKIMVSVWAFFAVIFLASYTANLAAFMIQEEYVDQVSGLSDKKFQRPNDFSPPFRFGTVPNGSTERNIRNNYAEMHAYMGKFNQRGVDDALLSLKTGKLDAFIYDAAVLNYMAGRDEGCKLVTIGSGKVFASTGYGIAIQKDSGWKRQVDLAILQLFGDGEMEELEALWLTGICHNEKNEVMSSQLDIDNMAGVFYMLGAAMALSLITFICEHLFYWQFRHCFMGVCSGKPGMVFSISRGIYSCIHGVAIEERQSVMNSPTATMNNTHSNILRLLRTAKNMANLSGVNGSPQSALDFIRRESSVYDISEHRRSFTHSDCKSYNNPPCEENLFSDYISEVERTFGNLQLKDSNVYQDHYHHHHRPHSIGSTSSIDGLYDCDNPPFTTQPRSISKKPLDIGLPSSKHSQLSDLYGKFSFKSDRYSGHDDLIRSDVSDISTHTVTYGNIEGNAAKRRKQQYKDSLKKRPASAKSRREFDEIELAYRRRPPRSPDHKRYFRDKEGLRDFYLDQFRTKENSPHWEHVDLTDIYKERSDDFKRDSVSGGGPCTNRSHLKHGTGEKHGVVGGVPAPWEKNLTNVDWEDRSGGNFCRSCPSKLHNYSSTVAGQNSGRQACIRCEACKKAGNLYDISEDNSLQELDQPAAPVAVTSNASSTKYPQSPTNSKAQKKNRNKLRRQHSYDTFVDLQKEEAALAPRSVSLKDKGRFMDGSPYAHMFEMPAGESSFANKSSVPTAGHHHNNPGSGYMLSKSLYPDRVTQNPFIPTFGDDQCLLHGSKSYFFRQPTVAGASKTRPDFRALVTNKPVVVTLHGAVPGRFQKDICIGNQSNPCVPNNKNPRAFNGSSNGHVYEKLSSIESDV
- experiment: 3H-Ro 25-6981 binding (displacement) on rat brain membranes
- stated_conditions: displacement of 5 nM 3H-Ro 25-6981, rat whole brain minus cerebellum and medulla oblongata membranes, 2 hours at 4° C., pH 7.4
Please respond with reported pIC50 for every item in the list.
Give bare numbers, as −log10 of the molar value.

{"mol_smiles": "Cc1cc(N)cc(N2CCc3ccccc3C2)n1", "target_desc": "NMDA-receptor subtype 2B (Rattus norvegicus, UniProt P35439+Q00960)", "pIC50": 7.85}
{"mol_smiles": "Cc1cc(N2CCc3ccccc3C2)cc(N)n1", "target_desc": "NMDA-receptor subtype 2B (Rattus norvegicus, UniProt P35439+Q00960)", "pIC50": 7.96}
{"mol_smiles": "Cc1cc(N2CCc3ccccc3C2)cc(NCCO)n1", "target_desc": "NMDA-receptor subtype 2B (Rattus norvegicus, UniProt P35439+Q00960)", "pIC50": 8.40}
{"mol_smiles": "Cc1cc(N2CCc3ccccc3C2)ccn1", "target_desc": "NMDA-receptor subtype 2B (Rattus norvegicus, UniProt P35439+Q00960)", "pIC50": 7.70}
{"mol_smiles": "CCOC(=O)C(=O)Nc1cc(N2CCc3ccccc3C2)cc(C)n1", "target_desc": "NMDA-receptor subtype 2B (Rattus norvegicus, UniProt P35439+Q00960)", "pIC50": 7.70}
{"mol_smiles": "Nc1cc(CO)nc(N2CCc3ccccc3C2)c1", "target_desc": "NMDA-receptor subtype 2B (Rattus norvegicus, UniProt P35439+Q00960)", "pIC50": 7.96}
{"mol_smiles": "Nc1ccnc(N2CCc3ccccc3C2)c1", "target_desc": "NMDA-receptor subtype 2B (Rattus norvegicus, UniProt P35439+Q00960)", "pIC50": 8.10}
{"mol_smiles": "CCc1cc(N)cc(N2CCc3ccccc3C2)n1", "target_desc": "NMDA-receptor subtype 2B (Rattus norvegicus, UniProt P35439+Q00960)", "pIC50": 8.28}
{"mol_smiles": "OCCNc1ccnc(N2CCc3ccccc3C2)c1", "target_desc": "NMDA-receptor subtype 2B (Rattus norvegicus, UniProt P35439+Q00960)", "pIC50": 8.22}
{"mol_smiles": "Cc1cnc(N2CCc3ccccc3C2)cc1N", "target_desc": "NMDA-receptor subtype 2B (Rattus norvegicus, UniProt P35439+Q00960)", "pIC50": 7.96}

Would you mind giving pIC50 for every compound in the list below?
1. Cc1cc(NCCO)cc(N2CCc3ccccc3C2)n1
2. Nc1cc(N2CCc3ccccc3C2)ccn1

1. 7.96
2. 8.40

Reference source: patent US6831087B2
